Source: patent US20110135636A1

Measured % inhibition values are reported for all entries that follow.
targetOrSystem: T1, recombinant human EGFR extracellular domain with 6xHis (human, UniProt P00533 25-645)
T1 construct: In-house produced; also called 6xHis EGFR ECD; soluble human EGFR ECD; not shown: 6xHis tag
assayNotes: SPR competition, competitor 1320
Enter your answer as a number in %; do not include the unit.

antibody 992 (antibody, human IgG1, kappa, V domains shown, Chimeric mouse/human IgG1 kappa; the VL entry includes the human kappa constant region) VH: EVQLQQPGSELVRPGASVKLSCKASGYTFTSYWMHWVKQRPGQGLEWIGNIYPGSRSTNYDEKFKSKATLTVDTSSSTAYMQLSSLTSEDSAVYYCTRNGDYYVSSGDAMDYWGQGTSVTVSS VL: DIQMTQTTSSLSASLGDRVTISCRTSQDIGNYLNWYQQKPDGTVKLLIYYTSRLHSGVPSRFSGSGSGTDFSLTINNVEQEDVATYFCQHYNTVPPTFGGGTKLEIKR ... -38
antibody 1308 (antibody, human IgG1, kappa, V domains shown, Chimeric IgG1 kappa) VH: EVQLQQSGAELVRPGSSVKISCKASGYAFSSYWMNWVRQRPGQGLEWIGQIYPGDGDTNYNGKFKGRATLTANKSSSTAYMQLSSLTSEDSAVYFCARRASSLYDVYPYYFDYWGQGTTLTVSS VL: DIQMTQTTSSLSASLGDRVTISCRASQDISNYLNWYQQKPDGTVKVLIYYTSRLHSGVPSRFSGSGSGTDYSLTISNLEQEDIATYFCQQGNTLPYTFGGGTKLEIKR ... 2

Then there is this binder:
Incoming: Fill in % inhibition for record antibody 1260 (antibody, human IgG1, kappa, V domains shown, Chimeric IgG1 kappa) VH: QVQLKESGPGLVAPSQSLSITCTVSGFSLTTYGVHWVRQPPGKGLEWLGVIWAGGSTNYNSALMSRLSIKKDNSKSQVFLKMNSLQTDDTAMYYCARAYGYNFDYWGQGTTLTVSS VL: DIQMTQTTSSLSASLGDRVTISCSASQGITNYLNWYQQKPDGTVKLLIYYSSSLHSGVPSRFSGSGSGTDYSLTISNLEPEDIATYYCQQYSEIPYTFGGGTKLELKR
Outgoing: 26
